Source: patent US9243037B2

- protocol.notes: physchem
- Type: physicochemical
- cond: pH 7
- Method: Peptide solubility in 10 mM HEPES buffer with 1% DMSO was measured by monitoring tryptophan absorbance. A concentrated (6.0-8.0 mM) peptide stock solution in DMSO was diluted 100 times (5 μL of the stock into 500 jtl of 10 mM HEPES buffer, pH 7.0). The mixture was sonicated for 30 mins and then subject to centrifugation (14,000 rpm, 10 mins) to remove possible precipitate. […]
measured.endpoint: solubility at 30 mins

Problem: Name the reported solubility at 30 mins value associated with the molecule CC(C)C[C@@H](NC(=O)[C@H](C)NC(=O)CNC(=O)[C@@H](NC=O)C(C)C)C(=O)N[C@@H](C)C(=O)N[C@@H](C(=O)N[C@H](C(=O)N[C@@H](C(=O)N[C@@H](Cc1c[nH]c2ccccc12)C(=O)N[C@H](CCCCN)C(=O)N[C@@H](Cc1c[nH]c2ccccc12)C(=O)N[C@H](CCCCN)C(=O)N[C@@H](Cc1c[nH]c2ccccc12)C(=O)N[C@H](CCCCN)C(=O)N[C@@H](Cc1c[nH]c2ccccc12)C(=O)NCCO)C(C)C)C(C)C)C(C)C (racemic)
Result: ~100 µM
